molecules and their reported Plasma Stability 240 min mouse [% remain.]
Experiment: in vitro;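 further: sodium citrate stabilized mouse plasma, parent compound quantified by HPLC/MS/MS relative to its peak area at time zero, run in triplicate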
Type: in vitro ADME, mouse
Test settings: both, CD-1, mouse, plasma, 4 h, 10 µM
Please answer using a numeric value trailed by its unit.

Record excerpt, results attached:
1. CN1CC(=O)N2C[C@H](NC(=O)CN3CCCC3)C[C@H]2COc2ccc(cc2)C(=O)N(C)[C@H](C(=O)NCc2ccncc2)CCC1=O	74 % remain.
2. CN1CCC[C@H](NC(=O)OCc2ccccc2)C(=O)N2C[C@@H](NC(=O)Cc3ccc4ccccc4c3)C[C@H]2COc2cccc(c2)C1=O	58 % remain.

Next item in the queue.
Query block: Field request: Plasma Stability 240 min mouse [% remain.] | item: "CN1CCC[C@H](N2CCN(S(C)(=O)=O)CC2)C(=O)N2C[C@@H](O)C[C@H]2COc2cccc(c2)C1=O"
Result block: 83 % remain.
